- Tested on: MDA-MB 231 (breast)
- assay protocol: Cytotoxicity on human cells, automated nuclei counting: MDA-MB 231
- Format: cell-based
- test context: MDA-MB 231 cells, exposed 24 h to 48 h, 0.1 to 25 μM
observable: IC50 (µM)

compound="COC1CCN2C(=O)c3cccc(NC(=O)Nc4cc(C)ccn4)c3C2C1 (centres unmarked) [Compound 58]" value_modifier== endpoint_result=0.3
compound="COc1cc(NC(=O)Nc2cccc3c2C2CC4(CCN2C3=O)OCCO4)nc2ccccc12 (centres unmarked) [Compound 48]" value_modifier== endpoint_result=4
compound="O=C(Nc1ncccn1)Nc1cccc2c1C1CCCCN1C2=O (centres unmarked) [Compound 42]" value_modifier== endpoint_result=4
compound="COc1cc(NC(=O)Nc2cccc3c2C2CC(O)CCN2C3=O)nc2ccccc12 (centres unmarked) [Compound 109]" value_modifier== endpoint_result=6
compound="O=C(Nc1cccc(Br)n1)Nc1cccc2c1C1CCCCN1C2=O (centres unmarked) [Compound 19]" value_modifier=> endpoint_result=25

###

A collection of molecules and their measured IC50
- assay system: CDK1/cyclin B
- assay protocol: CDK1/cyclin B kinase inhibition (33P-ATP, histone H1)
- Format: biochemical, sea star
- test context: buffer C, 30° C., 15 μM ATP, read-out: IC50 μM Kinases CDK1
- Experimental: The protein kinase inhibition activities of the compounds of the invention are tested according to the following general procedure: Buffer C: 60 mM β-glycerophosphate, 15 mM p-nitrophenyl-phosphate, 25 mM Mops (pH 7.2), 5 mM EGTA, 15 mM mgCl2, 1 mM DTT, 1 mM sodium vanadate and 1 mM phenylphosphate. […] ATP (3.000 Ci/mmol.; 10 mCi/mL) in a final volume of 30 μL. […] The wet filters were counted in the presence of 1 mL of scintillation fluid ACS (Amersham).
observable: IC50 (µM)

molecule="O=C(Nc1ccccn1)Nc1cccc2c1C1CC3(CCN1C2=O)SCCS3 (stereo not shown)" value_modifier== endpoint_result=0.22
molecule="O=C(Nc1cnccn1)Nc1cccc2c1C1CC3(CCN1C2=O)SCCS3 (stereo not shown)" value_modifier== endpoint_result=0.13
molecule="O=C(Nc1cc(-c2ccccc2)on1)Nc1cccc2c1C1CCCCN1C2=O (stereo not shown)" value_modifier=> endpoint_result=10
molecule="COc1ccc(NC(=O)Nc2cccc3c2C2CCCCN2C3=O)cn1 (stereo not shown)" value_modifier== endpoint_result=25

###

- System: MDA-MB 231 (breast)
- assay protocol: Cytotoxicity on human cells, automated nuclei counting: MDA-MB 231
- Assay type: cell-based
- test context: MDA-MB 231 cells, exposed 24 h to 48 h, 0.1 to 25 μM
observable: IC50 (µM)

molecule="O=C(Nc1cnccn1)Nc1cccc2c1C1CC3(CCN1C2=O)SCCS3 (centres unmarked)" measurement_units=µM endpoint_result=0.15
molecule="O=C(Nc1cnccn1)Nc1cccc2c1C1CC3(CCN1C2=O)OCCO3 (centres unmarked)" measurement_units=µM endpoint_result=3
molecule="O=C1c2cccc(NC(=S)Nc3cccc(Br)n3)c2C2CCCCN12 (centres unmarked)" measurement_units=µM endpoint_result=4
molecule="O=C(Nc1cccc(Br)n1)Nc1cccc2c1C1CC3(CCN1C2=O)SCCS3 (centres unmarked)" measurement_units=µM endpoint_result=4
molecule="Cc1cccc(NC(=O)Nc2cccc3c2C2CC(O)CCN2C3=O)n1 (centres unmarked)" measurement_units=µM endpoint_result=8
